B1: NADP-dependent isopropanol dehydrogenase, P25984 (parent)
chain: MKGFAMLGINKLGWIEKERPVAGSYDAIVRPLAVSPCTSDIHTVFEGALGDRKNMILGHEAVGEVVEVGSEVKDFKPGDRVIVPCTTPDWRSLEVQAGFQQHSNGMLAGWKFSNFKDGVFGEYFHVNDADMNLAILPKDMPLENAVMITDMMTTGFHGAELADIQMGSSVVVIGIGAVGLMGIAGAKLRGAGRIIGVGSRPICVEAAKFYGATDILNYKNGHIVDQVMKLTNGKGVDRVIMAGGGSETLSQAVSMVKPGGIISNINYHGSGDALLIPRVEWGCGMAHKTIKGGLCPGGRLRAEMLRDMVVYNRVDLSKLVTHVYHGFDHIEEALLLMKDKPKDLIKAVVIL

variants of: B1; settings: Clostridium beijerinckii; pH 6.8; Thermal; CD; Na/K phosphate 50 mM; structure 1KEV; whole UniProt chain shown
VALUE_TYPE: change of melting temperature, mutant - wild type (higher = more stable) (°C)

{"MUTATION_CODE": "V224E S254K", "UNIT_OF_MEASUREMENT": "°C", "READING": 5.4}
{"MUTATION_CODE": "Q165E M304R", "UNIT_OF_MEASUREMENT": "°C", "READING": 5.3}
{"MUTATION_CODE": "V224E S254K Q165E M304R", "UNIT_OF_MEASUREMENT": "°C", "READING": 8.6}
{"MUTATION_CODE": "V224E S254K Q165E M304R R238A", "UNIT_OF_MEASUREMENT": "°C", "READING": 8.5}
